Form field: IC50 (one value per entry).
Biological target: KRAS G12V (Homo sapiens, UniProt P01116+P62937, G12V)
Sequence (P01116 1-169 isoform P01116-2 G12V limits assumed): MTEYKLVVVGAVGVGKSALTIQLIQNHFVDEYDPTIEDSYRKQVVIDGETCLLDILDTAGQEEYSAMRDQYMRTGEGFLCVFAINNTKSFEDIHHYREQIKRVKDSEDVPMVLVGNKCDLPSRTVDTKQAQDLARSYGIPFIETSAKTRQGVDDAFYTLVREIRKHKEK
Sequence (P62937 whole entry): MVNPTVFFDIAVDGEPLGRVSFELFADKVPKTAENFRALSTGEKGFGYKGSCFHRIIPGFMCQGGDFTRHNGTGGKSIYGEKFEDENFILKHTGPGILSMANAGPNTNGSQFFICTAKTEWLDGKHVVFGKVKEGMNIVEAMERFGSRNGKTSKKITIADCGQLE
Experiment: Disruption of BRAF RBD interaction with Ras (FRET / MOA assay, with Cyclophilin A)
Type: biochemical
Conditions: KRAS G12V; read-out: KRAS G12V FRET data IC50

Example molecules with recorded IC50:
[[record]]
molecule = "CCn1c(-c2cccnc2[C@H](C)OC)c2c3cc(ccc31)-c1cc(O)cc(c1)C[C@H](NC(=O)[C@H](C(C)C)N(C)C(=O)Cc1cc[nH]n1)C(=O)N1CCC[C@H](N1)C(=O)OCC(C)(C)C2"
test_result = "0.1 to 1 µM"

[[record]]
molecule = "CCn1c(-c2cccnc2COC)c2c3cc(ccc31)-c1cc(O)cc(c1)C[C@H](NC(=O)[C@H](C(C)C)N(C)C(=O)C1CN(C(=O)C#CCN(C)C)C1)C(=O)N1CCC[C@H](N1)C(=O)OCC(C)(C)C2"
test_result = "0.1 to 1 µM"

[[record]]
molecule = "CO[C@@H](C)c1ncccc1-c1c2c3cc(ccc3n1C)-c1csc(n1)C[C@H](NC(=O)[C@H](C(C)C)N(C)C(C)=O)C(=O)N1CCC[C@H](N1)C(=O)OCC(C)(C)C2 (racemic)"
test_result = "> 10 µM"

[[record]]
molecule = "C=CC(=O)N1CC[C@H](C(=O)N(C)[C@H](C(=O)N[C@H]2Cc3cc(O)cc(c3)-c3ccc4c(c3)c(c(-c3ccnc5c3[C@@H](OC)CC5)n4CC)CC(C)(C)COC(=O)[C@@H]3CCCN(N3)C2=O)C(C)C)C1"
test_result = "0.01 to 0.1 µM"


We now examine a further molecule.
For this molecule ( CCC(=O)N1CC[C@H](C(=O)N(C)[C@H](C(=O)N[C@H]2Cc3cc(O)cc(c3)-c3ccc4c(c3)c(c(-c3ccccc3CCOC)n4CC)CC(C)(C)COC(=O)[C@@H]3CCCN(N3)C2=O)C(C)C)C1 ), measured IC50 is 1 to 10 µM

###

Molecular target: KRAS G13C (Homo sapiens, UniProt P01116+P62937, G13C)
Sequence (P01116 1-169 isoform P01116-2 G13C limits assumed): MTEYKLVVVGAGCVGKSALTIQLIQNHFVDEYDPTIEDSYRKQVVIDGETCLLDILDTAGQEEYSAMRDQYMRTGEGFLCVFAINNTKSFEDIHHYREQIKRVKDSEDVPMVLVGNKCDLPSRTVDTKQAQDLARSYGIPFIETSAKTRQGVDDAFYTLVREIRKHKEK
Sequence (P62937 whole entry): as the sequence (P62937 whole entry) above
Test: Ras-Raf disruption / FRET / MOA assay (BRAF RBD)
Assay type: biochemical
Details: Ras-Raf disruption, with Cyclophilin A; read-out: KRAS G13C FRET data IC50
Quick reference for IC50 among some molecules

See these solved cases before continuing.
[[record]]
molecule = "CCn1c(-c2cccnc2[C@H](C)OC)c2c3cc(ccc31)-c1cc(O)cc(c1)C[C@H](NC(=O)[C@H](C(C)C)N1CC[C@@]3(CCN(C(=O)[C@H]4CN4)C3)C1=O)C(=O)N1CCC[C@H](N1)C(=O)OCC(C)(C)C2 [Example 149]"
test_result = "10 to 100 nM"

[[record]]
molecule = "CCn1c(-c2cccnc2[C@H](C)OC)c2c3cc(ccc31)-c1cc(O)cc(c1)C[C@H](NC(=O)[C@H](C(C)C)N(C)C(=O)N1CCCN(C(=O)[C@@H]3CN3)CC1)C(=O)N1CCC[C@H](N1)C(=O)OCC(C)(C)C2 [Example 173]"
test_result = "10 to 100 nM"

[[record]]
molecule = "CCn1c(-c2cccnc2[C@H](C)OC)c2c3cc(ccc31)-c1csc(n1)C[C@H](NC(=O)[C@H](C(C)C)N(C)C(=O)N1CCN(C(=O)[C@H]3CN3)[C@H](C)C1)C(=O)N1CCC[C@H](N1)C(=O)OCC(C)(C)C2 [Example 299]"
test_result = "100 to 1000 nM"


Next:
// IC50 lookup, molecule = CCn1c(-c2cccnc2[C@H](C)OC)c2c3cc(ccc31)-c1csc(n1)C[C@H](NC(=O)[C@H](C(C)C)N(C)C(=O)N1CCCN(C(=O)[C@@H]3CN3)CC1)C(=O)N1CCC[C@H](N1)C(=O)OCC(C)(C)C2 (atropisomer, axis not shown) [Example 223] , result: 100 to 1000 nM
